molecular target: Human recombinant TNF-α (human, UniProt P01375); experiment: flow cytometry on U937 cells, TNF-α preincubated with peptide, read out with htr-9
Bridge positions count the residues as written; N and C are the ends. Ends that are not written are not given here.
observed property: IC50 (µM)

> print(dat)
                                     binder  observed.property  measured.value
1  YCWSQYLCY (disulfide 2-8 (inferred)) [WP9QY]               IC50              75

The reported numbers originate from patent US6265535A.
